- System Name: Abeta:Zn (25:50 μM) Synthetic Aggregations (Homo sapiens, UniProt P05067)
- Construct: PB Compound Mediated Dissolution of Aggregated Abeta 1-42
- Assay Name: Disaggregation of Abeta:Zn synthetic aggregates (ThT fluorescence)
- Cond: Abeta:Zn 25:50 μM aggregates
pEC50: −log10 of the molar value.
Outcome label depends on pEC50 relative to 5: at/above gives label 1, below gives label 0.

# example entries with known answers
Record "CCN(CC)Cc1ccc2c(Cl)cc(Cl)c(O)c2n1.Cl" ; criterion: pEC50 no lower than 5. Met?
label 0

Do the same for "CCCCCn1cnc2c(O)c(I)ccc2c1=O" please
label 1

Do the same for "COc1ccc(NCc2cccc3cccnc23)cc1" please
label 0

Do the same for "Oc1c(Cl)cc(Cl)c2ccc(-c3ccccn3)nc12" please
label 1

Do the same for "Oc1ccccc1-c1cn2ccccc2n1" please
label 0

More entries:
Record "O=c1c2c(Cl)cc(I)c(O)c2ncn1-c1cccnc1" ; criterion: pEC50 no lower than 5. Met?
label 0

Do the same for "CC(C)Cn1cnc2c(O)c(I)ccc2c1=O" please
label 0

Do the same for "c1ccc(-c2ccccn2)nc1" please
label 0

Do the same for "CN(C)Cc1ccc2c(Cl)cc(I)c(O)c2n1" please
label 1

Do the same for "Oc1c(C2CC2)ncc2cccnc12" please
label 1

====

Entries and their IC50
- System Name: Aβ 1-42 (Homo sapiens, UniProt P05067)
- Construct: The reaction solutions contained Aβ 1-42 at concentrations
- Sequence (P05067 672-713 limits assumed): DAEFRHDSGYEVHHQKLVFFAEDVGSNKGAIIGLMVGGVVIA
- Assay Name: Fluorometric H2O2 assay (inhibition of Abeta H2O2 production)
- Assay type: biochemical
- Cond: concentration required to inhibit 50% of Abeta H2O2 production; read-out: H2O2 IC50
// note: answer is a bare numeric in nM

If you can, please state the reported IC50 value of "O=c1c2c(Cl)cc(Cl)c(O)c2ncn1Cc1nccs1" .
250

Do the same for "CC(C)c1cnc2c(O)cccn2c1=O" please
270

Do the same for "CN(CCc1ccccn1)Cc1ccc2cccc(O)c2n1" please
400

Do the same for "CC(C)c1cnc2c(O)c(I)ccn2c1=O" please
370

Do the same for "CCCn1cnc2c(O)c(I)ccc2c1=S" please
890

Do the same for "O=c1c2c(Cl)cc(I)c(O)c2ncn1Cc1ccccn1" please
480

More entries:
If you can, please state the reported IC50 value of "FC(F)(F)CSc1cccc2cccnc12" .
990

Do the same for "O=c1c2c(Cl)cc(Cl)c(O)c2ncn1Cc1ccn2ccnc2c1" please
720

Do the same for "CCCc1cnc2c(O)cccn2c1=O" please
300

Do the same for "O=c1c2cccc(O)c2ncn1CC1CC1" please
1440

Do the same for "CCCCNC(=O)c1cnc2c(O)cccn2c1=O" please
680

Do the same for "CCN(CC)CCn1cnc2c(O)c(I)ccc2c1=O" please
290

Do the same for "O=c1c2ccc(I)c(O)c2ncn1Cc1cccc(Cn2cnc3c(O)c(I)ccc3c2=O)n1" please
310

Do the same for "CN(C)Cc1ccc2c(Cl)cc(Cl)c(O)c2n1.Cl" please
350

Do the same for "O=c1c2ccc(I)c(O)c2ncn1Cc1ccccn1" please
520

Do the same for "CCn1cnc2c(O)c(I)cc(Cl)c2c1=O" please
300

Do the same for "CCn1cnc2c(O)c(Cl)cc(Cl)c2c1=O" please
950

Do the same for "CN(C)Cc1nc2c(O)c(Cl)cc(Cl)c2c(=O)n1CC1CC1.Cl" please
370

Do the same for "O=c1c(-c2ccc(Cl)cc2)cnc2c(O)cccn12" please
480

Do the same for "O=c1c2c(Cl)cc(Cl)c(O)c2ncn1Cc1ccncc1" please
440

Do the same for Br.CN1CCCC1Cn1cnc2c(O)c(Cl)cc(Cl)c2c1=O (stereo not drawn) please
430

Do the same for "Oc1c(Br)cc(Br)c2cccnc12" please
500

Do the same for "Nc1ccccc1NC(=O)c1cc(O)c2cccc(O)c2n1" please
3600

Do the same for "O=c1c2c(Cl)cc(Cl)c(O)c2ncn1-c1ccccn1" please
280

Do the same for "Cn1ccnc1Cn1cnc2c(O)c(Cl)cc(Cl)c2c1=O" please
380
